B1: HEEH_KT_rd6_0007 (parent)
chain: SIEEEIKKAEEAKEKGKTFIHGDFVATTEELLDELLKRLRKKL

# Variants of: B1
# TEST_DESCRIPTION: folding stability dG (cDNA display proteolysis); higher = more stable
# PARTICULARS: PBS, room temperature
Threshold check on folding stability dG: at or above 0.9 kcal/mol gives Condition met, strictly below gives Condition not met.

These solved cases illustrate the format of a correct answer.
>>> label_value("E4M")
"Condition met"
>>> label_value("K7C")
"Condition met"
>>> label_value("K13Y")
"Condition met"

Could you tell me if the measured folding stability dG of E30F reaches 0.9 kcal/mol or more? Condition met

And K41Y ? Condition met

E5K , same question. Condition met

Another variant to check: K37E Condition met

Another variant to look at: F19E Condition not met

Here is the next variant: K15D Condition not met

Same lookup for E10D , please. Condition not met

Same read-out for F24R ? Condition not met

And L35Y ? Condition not met

Next entry: T28R Condition not met

Request: F19A Condition not met

Now this one: E34K Condition met

Next variant up: I6D Condition not met
